MEASURED TARGET: human α5β3γ2 receptor (α5-GABAA receptor) (Homo sapiens (Human), UniProt P18507+P31644)
EXPERIMENT NOTES: Radioligand (3H-flunitrazepam) competition binding assay, BZD site
EXPERIMENTAL CONDITIONS: 3H-flunitrazepam 1 nM; HEK293 membranes expressing human α5β3γ2
pKi: −log10 of the molar value.
Returns one of Y or N; Y when pKi is >= 8.

INSERT INTO measurements (smi, class_label) VALUES
  ('Cc1onc(-c2ccc(F)cc2)c1COc1ccc(-c2nnc3n2CCCO3)cn1', 'N'),
  ('Cc1onc(-c2ccc(F)cc2)c1COc1cnc(-c2nnc3n2CCOC3)cn1', 'Y'),
  ('Cc1onc(-c2ccc(F)cc2)c1COc1ccc(-c2nnc3n2CCCOC3)nn1', 'Y'),
  ('Cc1onc(-c2ccc(F)cc2)c1COc1ccc(-c2cc3n(c(=O)n2)C[C@]24CO[C@H](CN32)C4)cn1', 'Y');

Asked: Is it the case that `Cc1onc(-c2ccc(F)cc2)c1COc1ccc(-c2nnc3n2CCS(=O)(=O)C3)nn1` has pKi reaching or exceeding 8?
Given back: Y
